- Test system: Rattus norvegicus
- ASSAY DETAILS: Dose normalized AUC in Sprague-Dawley rat at 5 mg/kg, po
- Assay type: ADME, organism-based
- Parameters: dose 5 mg/kg, route oral
- MEASUREMENT CONDITIONS: in vivo
PARAMETER MEASURED: AUC/dose (µM·h)
Give just the number in µM·h; leave the unit off.

Identify the reported AUC/dose for the following entry. CC1(n2cnc3cnc4[nH]ccc4c32)CCN(S(C)(=O)=O)CC1
2.3

Identify the reported AUC/dose for the following entry. N#CCCN1CCC(n2cnc3cnc4[nH]ccc4c32)CC1
1.6

Identify the reported AUC/dose for the following entry. N#CCCN[C@H]1CC[C@H](n2cnc3cnc4[nH]ccc4c32)CC1
0.7

Identify the reported AUC/dose for the following entry. CS(=O)(=O)N1CCC(n2cnc3cnc4[nH]ccc4c32)CC1
2.3

Identify the reported AUC/dose for the following entry. N#CCC(=O)N1CCC[C@@H](n2cnc3cnc4[nH]ccc4c32)C1
0.3

Identify the reported AUC/dose for the following entry. CC(C)(C)OC(=O)N[C@@H]1CC[C@@H](n2cnc3cnc4[nH]ccc4c32)C1
1.3

Identify the reported AUC/dose for the following entry. N[C@H]1CC[C@H](n2cnc3cnc4[nH]ccc4c32)CC1
0.22

###

- ASSAY DETAILS: in vitro
- MEASUREMENT CONDITIONS: human, liver microsomes, t1/2
// assign met if half-life falls strictly below 0.8 h, else not met (ties count as not met)

Find out if reported half-life for N#CCCN[C@H]1CC[C@H](n2cnc3cnc4[nH]ccc4c32)CC1 is less than 0.8 h
not met

Find out if reported half-life for O=S(=O)(c1ccccc1)N1CCC(n2cnc3cnc4[nH]ccc4c32)CC1 is less than 0.8 h
met

Find out if reported half-life for CC(C)N1CCC[C@H]1C(=O)N1CCC(n2cnc3cnc4[nH]ccc4c32)CC1 is less than 0.8 h
not met

Find out if reported half-life for CC(C)(C)OC(=O)N[C@H]1CC[C@H](n2cnc3cnc4[nH]ccc4c32)CC1 is less than 0.8 h
not met

###

Provide the recorded half-life for the entries that follow.
- ASSAY DETAILS: in vitro
- MEASUREMENT CONDITIONS: human, liver microsomes, t1/2
Give just the number in h; leave the unit off.

Identify the reported half-life for the following entry. CC(C)(C)OC(=O)N[C@@H]1CC[C@@H](n2cnc3cnc4[nH]ccc4c32)C1 (racemic)
5.5

Identify the reported half-life for the following entry. CN1CCC[C@H]1C(=O)N1CCC(n2cnc3cnc4[nH]ccc4c32)CC1
4.7

Identify the reported half-life for the following entry. CN1CCCC[C@H]1C(=O)N1CCC(n2cnc3cnc4[nH]ccc4c32)CC1
3.5

###

Provide the recorded half-life for the entries that follow.
- ASSAY DETAILS: in vitro
- MEASUREMENT CONDITIONS: human, liver microsomes, t1/2
Give just the number in h; leave the unit off.

Identify the reported half-life for the following entry. CC(C)C(=O)N[C@H]1CC[C@H](n2cnc3cnc4[nH]ccc4c32)CC1
2.7

Identify the reported half-life for the following entry. c1ccc(CN2CCC(n3cnc4cnc5[nH]ccc5c43)CC2)cc1
0.8

Identify the reported half-life for the following entry. CC(C)(C)OC(=O)N[C@H]1CC[C@@H](n2cnc3cnc4[nH]ccc4c32)C1 (racemic)
1.8

Identify the reported half-life for the following entry. CN1CCC[C@@H]1C(=O)N1CCC(n2cnc3cnc4[nH]ccc4c32)CC1
2.8

Identify the reported half-life for the following entry. c1cc2c(ncc3ncn([C@H]4CC[C@@H](N5CCOCC5)CC4)c32)[nH]1
3.7

Identify the reported half-life for the following entry. N#CCC(=O)N1CCC[C@@H](n2cnc3cnc4[nH]ccc4c32)C1
1.4

Identify the reported half-life for the following entry. N[C@H]1CC[C@H](n2cnc3cnc4[nH]ccc4c32)CC1
3.7

Identify the reported half-life for the following entry. CC1(n2cnc3cnc4[nH]ccc4c32)CCN(Cc2cncnc2)CC1
1.6

Identify the reported half-life for the following entry. N#CCC(=O)N1CCC(n2cnc3cnc4[nH]ccc4c32)CC1
2

The origin of these recorded values is ChEMBL document CHEMBL2150873.
